Hey, just so you know, these numbers are from ChEMBL document CHEMBL5584357.

Assignment: determine reported MIC for the given molecules.
- System: Escherichia coli
- experiment: Antibacterial activity against Escherichia coli ATCC 25922 incubated for 16 to 18 hrs by broth microdilution method
- Assay type: functional
- conditions: time 16-18 hrs
Answers are plain numbers, in µM.

Here's what some known entries look like.
In [3]: df
Out[3]:
                                smiles_data  measured_value
0  COC(=O)[C@H](Cc1cc2ccc3ccc4ccc5ccc1c1c5c4c3c21)NC(=O)CNC(=O)[C@@H](N)CCCCN              50
1  COC(=O)[C@H](Cc1cc2ccc3ccc4ccc5ccc1c1c5c4c3c21)NC(=O)[C@@H](N)CCCCN.Cl.Cl              50

Please find the next molecule below.
Q. Any idea what its MIC is? The molecule is COC(=O)[C@H](CCCc1cc2ccc3ccc4ccc5ccc1c1c5c4c3c21)NC(=O)CNC(=O)[C@@H](N)CCCCN
A. 50
